- target: FimH (Escherichia coli, UniProt Q1R2J4)
- Construct: performed with UTI89 bacteria and guinea pig red blood cells; endogenous in cells; host or cells: UTI89 bacteria (whole cells, type 1 piliated)
- Format: cell-based
- cond: concentration reducing bacterial agglutination of guinea pig red blood cells by greater than 90%; UTI89 bacteria
HAI titer EC>90 for assorted compounds

Some entries whose results are on file:
# compound, metric name, result
data = [
    ("O=C1NCCc2ccc(-c3ccc([C@H](O)[C@H]4O[C@H](CO)[C@@H](O)[C@H](O)[C@@H]4O)c(C(F)(F)F)c3)cc21 [Example 34]", "HAI titer EC>90", "3 µM"),
    ("CNC(=O)c1cccc(-c2ccc([C@@H](O)[C@H]3O[C@H](CO)[C@@H](O)[C@H](O)[C@@H]3O)c(C(F)(F)F)c2)c1 [Example 39]", "HAI titer EC>90", "0.015 µM"),
    ("CNC(=O)c1cccc(-c2ccc(C(OC)[C@H]3O[C@H](CO)[C@@H](O)[C@H](O)[C@@H]3O)cc2C)c1 (single isomer, unassigned) [Example 8]", "HAI titer EC>90", "0.5 µM"),
    ("Cc1cc(-c2ccc3onc(N)c3c2)ccc1[C@@H](O)[C@H]1O[C@H](CO)[C@@H](O)[C@H](O)[C@@H]1O [Example 28]", "HAI titer EC>90", "0.027 µM"),
    ("CNC(=O)c1cc(C#N)cc(-c2ccc([C@@H](O)[C@H]3O[C@H](CO)[C@@H](O)[C@H](O)[C@@H]3O)c(C)c2)c1 [Example 42]", "HAI titer EC>90", "0.006 µM"),
]

Asked: For the compound Cc1cc(-c2ccnc(-c3ccnc(Cl)c3)c2)ccc1[C@@H](O)[C@H]1O[C@H](CO)[C@@H](O)[C@H](O)[C@@H]1O [Example 23] , report HAI titer EC>90.
Given back: 0.008 µM

Asked: For the compound Cc1cc(-c2ccnc(N(C)C)c2)ccc1[C@@H](O)[C@H]1O[C@H](CO)[C@@H](O)[C@H](O)[C@@H]1O [Example 27] , report HAI titer EC>90.
Given back: 0.016 µM

Asked: For the compound Cc1cc(-c2cccc3c(N)n[nH]c23)ccc1[C@@H](O)[C@H]1O[C@H](CO)[C@@H](O)[C@H](O)[C@@H]1O [Example 18] , report HAI titer EC>90.
Given back: 0.006 µM

Asked: For the compound Cc1cc(-c2ccnc(N)c2)ccc1[C@@H](O)[C@H]1O[C@H](CO)[C@@H](O)[C@H](O)[C@@H]1O [Example 26] , report HAI titer EC>90.
Given back: 0.039 µM

Asked: For the compound Cc1cc(-c2ccc3ncn(C)c3c2)ccc1[C@@H](O)[C@H]1O[C@H](CO)[C@@H](O)[C@H](O)[C@@H]1O [Example 16] , report HAI titer EC>90.
Given back: 0.042 µM
